assay: Primary qHTS for small molecule stabilizers of the endoplasmic reticulum resident proteome: Secreted ER Calcium Modulated Protein (SERCaMP) assay (AID 1508630); details: SH-SY5Y GLuc-SERCaMP (Gaussia luciferase released on ER calcium loss) secretion, thapsigargin, luminescence; series mostly up to 38.4 µM
Inconclusive results are not listed. Active and inactive are the calls of the source. The call rests on the fitted dose curve; in most records, active means well fitted inhibition curve with a large enough effect; inconclusive means small, poorly fitted or top-dose-only effect; inactive means no such curve, though single readings can be large or run the other way.
Readout: outcome

Previously resolved entries follow.
Chemical String | outcome
COc1cccc(-c2cc(NCc3ccccc3OC)ncn2)c1 | inactive
c1cncc(-c2cc(-n3ccnc3)ncn2)c1 | inactive
COc1ccc(-n2c(=O)c(CCc3ccccc3)nc3cnc(N(C)C)nc32)cc1 | inactive
COCC(=O)N1CCC2(CCCN(C(=O)Nc3cccc(C#N)c3)C2)CC1 | inactive

INPUT: I have this compound here, CC(=O)N1CCC2(CC1)CN(c1cccc(-c3ccccc3)c1)C2 , and I need its recorded outcome.
OUTPUT: inactive
